# assay details: Biodistribution of labeled radioligands in male Sprague-Dawley rats
# Type: in vivo
# measurement parameters: 60 min post-injection; mean ± SD, n = 3
Each record is given true (1) if its reported % ID/g Striatum is strictly below 0.3 % ID/g. Records at or above 0.3 % ID/g are given false (0).

compound | label class
CN(C)Cc1ccccc1Sc1ccc(C[18F])cc1N [[^18F]AFM] | false (0)
Cc1ccc(Sc2ccccc2CN(C)[11CH3])c(N)c1 [[^11C]MADAM] | false (0)
CN([11CH3])Cc1ccccc1Sc1ccc(F)cc1N [[^11C]AFA] | true (1)
CN([11CH3])Cc1ccccc1Sc1ccc(CF)cc1N [[^11C]AFM] | false (0)

Is 0.3 % ID/g strictly greater than the compound's reported % ID/g Striatum? compound: CN(C)Cc1ccccc1Sc1ccc([18F])cc1N [[^18F]AFA] true (1)

Lookup CN(C)Cc1ccccc1Sc1ccc(CCF)cc1N [[^11C]AFE] true (1)

Lookup CN(C)Cc1ccccc1Sc1ccc(CC[18F])cc1N [[^18F]AFE] true (1)
